Attribute: % positive
- Assayed system: EGFRvIII expressed on cells (F98-npEGFRvIII, NCI-H522-EGFRvIII, U87-KO-EGFRvIII) (human)
- Experiment notes: flow cytometry, F98-EGFRvIII cells; 2nd Ab only 2.3
All answers are understood in %, so give the number only.

Answered cases to consult:
Binder	Measured value
12B2 (antibody, V domains shown) VH: QVTLKESGPVLVKPTETLTLTCTVSGFSLSNPRMGVSWIRQPPGKALEWLGHIFSSDEKSYRLSLRSRLSISKDTSKSQVVLTMTNMDPVDTATYYCVRDSSNYGGYFDYWGQGTLVTVSS VL: EVVMTQSPATLSVSPGERATLSCRASQSVINNLAWYQQKPGQAPRLLIYGTSTRATDIPARFSGSGSGTEFTLTISSLQSEDFAVYYCQDYNNWPFTFGPGTKVDIK	97.9
12H6 (antibody, V domains shown) VH: QVTLKESGPVLVKPTETLTLTCTVSGFSLSNARMGVSWIRQPPGKALEWLAHIFSTDEKSIRRSLRSRLTLSKDTSKSQVVLTMTNMDPVDTATYYCARDSSNYEGYFDYWGQGTLVTVSS VL: EVVMTQSPATLSVSPGERATLSCRASQGVSSNFAWYQQRPGQSPRLLLYGASTRATGVPGRFSGSGSGTENILTISSLQSEDFAIYFCQQYKDWPFTFGPGSKVDIK	98.3
49B11 (antibody, V domains shown) VH: QVTLKESGPVLVKPTETLTLTCTVSGFSLSNVRMGVSWIRQPPGKALEWFAHIFSSDEKSIRRSLRSRLTLSKDTSKSQVVLTMTNMDPVDTATYYCARDSSNYEGYFDYWGQGTLVTVSS VL: EMEVTQSPATLSVSPGERATLSCRASQNIGSDLAWYQQQSGQAPRLLISGASTRATGVPTRFSGSGSGTDFTLTITSLQSEDFAVYYCQQYNDWPFTFGPGTKVDIK	98.5
32A10 (antibody, V domains shown) VH: QVTLKESGPVLVKPTETLTLTCTVSGFSLSNARMGVSWIRQPPGKALEWLAHIFSTDEKSIRRSLRSRLTLSKDTSKSQVVLTMTNMDPVDTATYFCARDSSNYEGYFDYWGQGTLVTVSS VL: EVVMTQSPATLSVSPGERVTLSCRASQSVSSNFAWYQQRPGQAPRLLLYGATTRATGLPGRFSGSGSGTENILTISSLQSEDFAIYFCQQYKDWPFTFGPGSKVDIK	98.3

Next item in the queue.
# query: % positive of entry 19A9 (antibody, V domains shown) VH: QVTLEESGPVLVKPTETLTLTCTVSGFSLSNARMGVSWIRQPPGKAPEWFAHIFSTDEKSLRLSLRSRLTLSKDTSKSQVVLTMTNMDPVDTATYYCARDSSNYEGYFDYWGQGTLVTVSS VL: EVVMTQSPATLSVSPGERATLSCRASQSVNRNLAWYQQKPGQAPRLLIFGTSTRATGIPARFSGSGSGTEFTLTIDSLQSEHSGLYYCQQYNDWPFTFGPGTKVDIK
98.1
